# assayed_target: Rap guanine nucleotide exchange factor 3 (Homo sapiens)
# test_summary: Confirmatory qHTS for antagonist of cAMP-regulated guanine nucleotide exchange factor 3 (EPAC1) (AID 1645880); also: nearly all actives have a fitted effect of over 55% in size; also: potency is read from the fitted curve at half-maximal effect
# test_parameters: EPAC1 Rap1B-BODIPY-GDP exchange, fluorescence; series mostly up to 115 µM
Records with an inconclusive call do not appear. The source made the active and inactive calls. Calls follow the shape of the dose curve; as a rule, active = well fitted inhibition curve with a large enough effect; inconclusive = small, poorly fitted or top-dose-only effect; inactive = no such curve, though single readings can be large or run the other way.
value_type: Potency

Example entries and their recorded answers appear below.
{"compound": "COc1ccccc1C(=O)Nc1ccccc1C(=O)OCc1cc(=O)n2c(C)csc2n1", "Potency": "inactive"}
{"compound": "CN(C)c1ccc(/C=C/c2nc3ccccc3c(=O)n2-c2ccc(C(=O)O)cc2)cc1", "Potency": "75.7 µM (active)"}
{"compound": "CC(=O)C(C(c1ccccc1)c1c[nH]c2ccccc12)[N+](=O)[O-] (stereo not given)", "Potency": "inactive"}
{"compound": "CC(C)Cc1csc(NC(=O)c2ccc(Cl)cc2)c1C(=O)O", "Potency": "inactive"}

Can you share its Potency? I mean this compound: CCC(=O)N1CCc2cc(OC)c(OC)cc2C1COc1ccccc1OC (stereo not given)
inactive
